These data points were gathered from patent US20050112126A1.

# target-system: T1, VEGF (human, UniProt P15692-4 27-191, limits assumed)
# T1 construct: Biotinylated in the KDR-IgG ELISA, amine-coupled to the chip in BIAcore; also called biotinylated VEGF; vascular endothelial growth factor
# T1 sequence (P15692 other isoform, or with tags, fused parts or gaps limits assumed): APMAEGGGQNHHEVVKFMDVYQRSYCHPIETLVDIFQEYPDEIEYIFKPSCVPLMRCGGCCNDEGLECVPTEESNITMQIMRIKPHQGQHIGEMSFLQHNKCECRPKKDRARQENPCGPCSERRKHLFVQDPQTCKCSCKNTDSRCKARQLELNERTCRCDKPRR
# assay-method-text: BIAcore-2000 SPR, relative to Y0192
I'd be grateful if you could share measured Kd (wt)/Kd (mut) for these entries.
Just the number in ratio, nothing appended.

Problem: Need Kd (wt)/Kd (mut), item Y0238-10 (Fab, V domains shown, From library YC-81 on the pY0192 template; Soluble Fab) VH: EVQLVESGGGLVQPGGSLRLSCAASGYTFTNYGINWVRQAPGKGLEWVGWINTYTGEPTYAADFKRRFTFSLDTSKSTAYLQMNSLRAEDTAVYYCAKYPYYRNTSHWYFDVWGQGTL VL: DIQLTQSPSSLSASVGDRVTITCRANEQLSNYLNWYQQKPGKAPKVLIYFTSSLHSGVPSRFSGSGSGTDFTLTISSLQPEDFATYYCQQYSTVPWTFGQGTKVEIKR
Solution: 4.8

Problem: Dear colleague, I am looking for the recorded Kd (wt)/Kd (mut) of the following binder: Y0244-1 (Fab, V domains shown, Soluble Fab) VH: EVQLVESGGGLVQPGGSLRLSCAASGYTFTNYGINWVRQAPGKGLEWVGWINTYTGEPTYAADFKRRFTFSVDVSKSTAYLQMNSLRAEDTAVYYCAKYPHYYGSSHWYFDVWGQGTL VL: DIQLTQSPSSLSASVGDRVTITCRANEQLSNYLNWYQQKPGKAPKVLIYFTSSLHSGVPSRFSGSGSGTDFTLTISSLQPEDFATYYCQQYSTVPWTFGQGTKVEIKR
Solution: 3.6

Problem: Need Kd (wt)/Kd (mut), item Y0238-5 (Fab, V domains shown, From library YC-81 on the pY0192 template; Soluble Fab) VH: EVQLVESGGGLVQPGGSLRLSCAASGYTFTNYGINWVRQAPGKGLEWVGWINTYTGEPTYAADFKRRFTFSLDTSKSTAYLQMNSLRAEDTAVYYCAKYPYYIAKSHWYFDVWGQGTL VL: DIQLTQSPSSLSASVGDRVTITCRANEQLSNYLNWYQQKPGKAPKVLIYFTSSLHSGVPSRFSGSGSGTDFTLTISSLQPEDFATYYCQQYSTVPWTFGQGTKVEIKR
Solution: 3.2
